Provenance of the data: patent US12162893B2

Listing of entries alongside the reported % CAF @ 10 μM,1 h.
# assayed.system: mutant G12C K-RAS (Homo sapiens, UniProt P01116, G12C)
# Construct: made in house; host or cells: E. coli BL21
# measurement.notes: covalent adduct formation (CAF) with mutant G12C K-RAS
# Format: binding
# setup.conditions: Table 6; 10 μM, 1 h
# Experimental: Embodiments disclosed herein are further illustrated by the following examples in Tables 1-4 and the Examples hereinbelow. The Tables indicate the compound number, structure, the observed mass spectral molecular weight peak, and covalent adduct formation (CAF) with a mutant G12C K-RAS after 60 minutes at a concentration of 10 micromolar.
Param answer (str): number followed by unit.

In the examples that follow, each entry is paired with its recorded % CAF @ 10 μM,1 h.
compound | % CAF @ 10 μM,1 h
C=CC(=O)N1C[C@H](C)N(c2nc(=O)n3c4c(c(-c5ccc(F)cc5F)c(Cl)cc24)OC[C@H]3CO[C@@H]2CCN(C)C2)C[C@H]1C | 45.8%
C=CC(=O)N1C[C@H](C)N(c2nc(=O)n3c4c(c(-c5ccc(F)cc5F)c(Cl)cc24)OC[C@H]3CCCN2CC3(COC3)C2)C[C@H]1C | 75.4%
C=CC(=O)N1C[C@H](C)N(c2nc(=O)n3c4c(c(-c5ccc(F)cc5F)c(Cl)cc24)OC[C@H]3CN2C[C@H]3CC[C@@H](C2)N3C)C[C@H]1C | 86.2%
C=CC(=O)N1C[C@H](C)N(c2nc(=O)n3c4c(c(-c5ccc(F)cc5F)c(Cl)cc24)OC[C@H]3CN(C(=O)[C@@H]2CCCN2C)C2CC2)C[C@H]1C | 51.1%
C=CC(=O)N1C[C@H](C)N(c2nc(=O)n3c4c(c(-c5c(C)ccc6[nH]ncc56)c(Cl)cc24)OC[C@H]3Cn2cccn2)C[C@H]1C (atropisomer, axis not shown) [Example 319] | 0%

Summary line: C=CC(=O)N1C[C@H](C)N(c2nc(=O)n3c4c(c(-c5c(C)ccc6[nH]ncc56)c(Cl)cc24)OC[C@H]3CCCN2C[C@@H]3C[C@H]2CO3)C[C@H]1C (atropisomer, axis not shown) [Example 325] , mutant G12C K-RAS (Homo sapiens, UniProt P01116, G12C), reported % CAF @ 10 μM,1 h = 0%

Test item "C=CC(=O)N1C[C@H](C)N(c2nc(=O)n3c4c(c(-c5ccc(F)cc5F)c(Cl)cc24)O[C@@H](CCCN2CCOCC2)C3)C[C@H]1C" ; mutant G12C K-RAS (Homo sapiens, UniProt P01116, G12C); reported % CAF @ 10 μM,1 h was 17.7%

Summary: "C=CC(=O)N1C[C@H](C)N(c2nc(=O)n3c4c(c(-c5ccc(F)cc5F)c(Cl)cc24)OC[C@H]3CCCN2CCN(C)CC2)C[C@H]1C" , mutant G12C K-RAS (Homo sapiens, UniProt P01116, G12C), % CAF @ 10 μM,1 h = 97.4%

====

# assayed.system: mutant G12C K-RAS (Homo sapiens, UniProt P01116, G12C)
# Construct: made in house; host or cells: E. coli BL21
# measurement.notes: covalent adduct formation (CAF) with mutant G12C K-RAS
# Format: binding
# setup.conditions: Table 6; 10 μM, 1 h
% CAF @ 10 μM,1 h vs 90%: at or above is TRUE, below is FALSE.

The examples below pair each entry with its known result.
molecule | assayed.system | label.value
C=CC(=O)N1CCN(c2nc(=O)n3c4c(c(-c5c(O)cccc5F)c(Cl)cc24)OC[C@@H]3CN2CCOCC2)[C@@H](C)C1 [Example 196] | mutant G12C K-RAS (Homo sapiens, UniProt P01116, G12C) | TRUE
C=CC(=O)N1C[C@H](C)N(c2nc(=O)n3c4c(c(-c5cc(Cl)ccc5F)c(Cl)cc24)OC[C@H]3CN2CCOCC2)C[C@H]1C [Example 212] | mutant G12C K-RAS (Homo sapiens, UniProt P01116, G12C) | FALSE
C=CC(=O)N1C[C@H](C)N(c2nc(=O)n3c4c(c(-c5ccc(F)cc5F)c(Cl)cc24)OC[C@H]3CC2CCN(C)CC2)C[C@H]1C [Example 288] | mutant G12C K-RAS (Homo sapiens, UniProt P01116, G12C) | TRUE

[in] Does C=CC(=O)N1C[C@H](C)N(c2nc(=O)n3c4c(c(-c5cc(Cl)ccc5F)c(Cl)cc24)OC[C@@H]3CN2CCC(F)(F)C2)C[C@H]1C [Example 214] have a reported % CAF @ 10 μM,1 h of at least 90%?
[out] FALSE

[in] Is % CAF @ 10 μM,1 h for C=CC(=O)N1C[C@H](C)N(c2nc(=O)n3c4c(c(-c5cccc6ccccc56)c(Cl)cc24)OC[C@H]3CCCN2C[C@@H]3C[C@H]2CO3)C[C@H]1C (atropisomer, axis not shown) [Example 322] at or above 90%?
[out] FALSE

[in] Record C=CC(=O)N1C[C@H](C)N(c2nc(=O)n3c4c(c(-c5ccc(F)cc5F)c(Cl)cc24)OC[C@@H]3CCCN2C[C@@H]3C[C@H]2CO3)C[C@H]1C [Example 266] ; criterion: % CAF @ 10 μM,1 h no lower than 90%. Met?
[out] FALSE

[in] For this molecule, is measured % CAF @ 10 μM,1 h 90% or higher? C=CC(=O)N1C[C@H](C)N(c2nc(=O)n3c4c(c(-c5c(O)cccc5F)c(Cl)cc24)OC[C@@H]3CCCN2CCOCC2)C[C@H]1C (atropisomer, axis not shown) [Example 225]
[out] FALSE

[in] Does C=CC(=O)N1C[C@H](C)N(c2nc(=O)n3c4c(c(-c5cccc6ccccc56)c(Cl)cc24)OC[C@H]3CN2CCN(C)CC2)C[C@H]1C (atropisomer, axis not shown) [Example 295] have a reported % CAF @ 10 μM,1 h of at least 90%?
[out] FALSE
